Data credit: patent US20240336909

Target: AxCT mask27 EGFR EH104 L063 version 1
Let's look at some proteins and their measured Percent cleavage.
Lab book: enter the figure in %, no units written.

Consider the reported Percent cleavage for these proteins:
>>> number("Matriptase (protein) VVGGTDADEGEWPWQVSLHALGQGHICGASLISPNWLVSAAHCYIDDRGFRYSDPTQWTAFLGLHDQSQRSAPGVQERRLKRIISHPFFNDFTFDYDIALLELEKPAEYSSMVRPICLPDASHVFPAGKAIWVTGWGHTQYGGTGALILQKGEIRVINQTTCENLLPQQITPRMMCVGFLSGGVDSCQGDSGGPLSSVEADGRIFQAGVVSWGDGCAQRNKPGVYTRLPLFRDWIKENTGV")
49
>>> number("Neutrophil Elastase (protein) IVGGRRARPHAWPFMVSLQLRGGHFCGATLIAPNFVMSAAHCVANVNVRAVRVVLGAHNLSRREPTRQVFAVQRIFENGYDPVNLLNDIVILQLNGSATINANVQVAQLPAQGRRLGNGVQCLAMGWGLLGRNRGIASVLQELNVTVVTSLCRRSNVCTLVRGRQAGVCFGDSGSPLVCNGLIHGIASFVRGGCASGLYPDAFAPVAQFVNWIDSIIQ")
9
>>> number("Cathepsin G (protein) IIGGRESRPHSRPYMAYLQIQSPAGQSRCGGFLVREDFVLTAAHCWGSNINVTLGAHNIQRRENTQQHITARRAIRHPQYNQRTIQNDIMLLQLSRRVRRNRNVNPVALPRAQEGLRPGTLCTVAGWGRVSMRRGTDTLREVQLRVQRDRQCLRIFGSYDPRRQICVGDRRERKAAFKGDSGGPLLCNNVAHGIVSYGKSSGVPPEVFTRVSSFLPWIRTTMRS")
0

Consider the record given below.
Exercise: Report Percent cleavage for MMP-1 (protein) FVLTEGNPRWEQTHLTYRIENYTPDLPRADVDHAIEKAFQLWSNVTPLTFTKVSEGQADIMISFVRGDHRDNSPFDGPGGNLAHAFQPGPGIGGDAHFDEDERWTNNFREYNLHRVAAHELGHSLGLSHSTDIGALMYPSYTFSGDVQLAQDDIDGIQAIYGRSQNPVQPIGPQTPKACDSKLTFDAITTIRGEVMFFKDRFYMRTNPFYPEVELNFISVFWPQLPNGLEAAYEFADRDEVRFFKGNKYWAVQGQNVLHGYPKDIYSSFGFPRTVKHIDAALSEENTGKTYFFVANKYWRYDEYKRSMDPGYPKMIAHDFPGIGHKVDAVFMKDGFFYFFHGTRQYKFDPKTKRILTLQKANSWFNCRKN
Key: 0
